Origin of the recorded values: ChEMBL document CHEMBL3046600

The entries below come with measured Kb values attached.
target: Histamine H3 receptor (Cavia porcellus); experiment: Antagonist activity at histamine H3 receptor in Cavia porcellus (guinea pig) jejunum assessed as inhibition of electrically-induced contraction; settings: read-out: pA2 (converted)
Express the result in nM but write the number alone.

These solved cases illustrate the format of a correct answer.
# COMPOUND, Kb / nM
measured = [
    ("NCCCN1CCN(CCCOc2ccccc2)CC1", 513),
    ("NCCN1CCN(CCCCCCCOc2ccccc2)CC1", 380),
    ("NCCCN1CCN(CCCCOc2ccccc2)CC1", 240),
]

Lookup result for NCCCCN1CCN(CCCCCCCOc2ccccc2)CC1 ; measured Kb: 66.1

* * *

Kb listing for selected compounds.
target: Histamine H3 receptor (Cavia porcellus, UniProt Q9JI35); assay: Antagonist activity at histamine H3 receptor in Cavia porcellus (guinea pig) jejunum assessed as inhibition of electrically-induced contraction; conditions: read-out: pA2 (converted)
Sequence (Q9JI35 whole entry): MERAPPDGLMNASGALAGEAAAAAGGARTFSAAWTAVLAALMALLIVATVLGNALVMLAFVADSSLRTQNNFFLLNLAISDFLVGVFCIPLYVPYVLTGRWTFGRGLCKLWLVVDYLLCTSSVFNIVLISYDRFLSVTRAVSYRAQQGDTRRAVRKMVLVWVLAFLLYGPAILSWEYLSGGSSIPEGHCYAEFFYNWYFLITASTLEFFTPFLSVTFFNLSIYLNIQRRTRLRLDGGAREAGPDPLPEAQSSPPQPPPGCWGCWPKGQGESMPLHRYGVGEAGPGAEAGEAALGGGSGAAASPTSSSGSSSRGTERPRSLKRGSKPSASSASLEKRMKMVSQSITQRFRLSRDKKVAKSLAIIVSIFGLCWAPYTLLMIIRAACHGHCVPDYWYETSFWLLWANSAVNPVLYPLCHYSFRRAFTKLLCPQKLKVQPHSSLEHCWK
Give the figure together with its unit, number first.

Record excerpt, results attached:
# COMPOUND, Kb
measured = [
    ("S=C(NC1CCCCC1)N1CCC(c2cnc[nH]2)CC1 [THIOPERAMIDE]", "2.19 nM"),
    ("NCCCN1CCN(CCOc2ccccc2)CC1", "178 nM"),
    ("NCCCN1CCN(CCCCCCCCCOc2ccccc2)CC1", "102 nM"),
]

Let us move to another entry and its Kb.
Readout Kb for NCCCCCCCN1CCN(CCCCCCCOc2ccccc2)CC1 , test system Histamine H3 receptor (Cavia porcellus, UniProt Q9JI35), was 214 nM

* * *

molecular target: Histamine H3 receptor (Cavia porcellus, UniProt Q9JI35); assay: Antagonist activity at histamine H3 receptor in Cavia porcellus (guinea pig) jejunum assessed as inhibition of electrically-induced contraction; conditions: read-out: pA2 (converted)
MEASURED_METRIC: Kb (nM)
The response must be a number in nM with no trailing unit.

# COMPOUND_STRING, UNIT_TEXT, Kb
records = [
    ("NCCCN1CCN(CCCCCCCCOc2ccccc2)CC1", "nM", 145),
    ("NCCCCCN1CCN(CCCCCCCOc2ccccc2)CC1", "nM", 102),
    ("NCCCN1CCN(CCCCCCCOc2ccccc2)CC1", "nM", 91.2),
    ("NCCCN1CCN(CCCCCCOc2ccccc2)CC1", "nM", 191),
    ("NCCCCCCN1CCN(CCCCCCCOc2ccccc2)CC1", "nM", 214),
]

Please look at the following molecule next.
Memo: NCCCN1CCN(CCCCCOc2ccccc2)CC1 , reported Kb: 158
